These data points were gathered from the supplement of paper PMC8967900.

system: COG-LL-355h; experiment: selective drug sensitivity score (sDSS, relative to normal bone marrow) (sDSS (score)); higher = more potent and effective on the cell line relative to normal bone marrow cells; conditions: 72 h;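 note: ALL cell lines in 384-well plates, five doses spanning 10,000-fold, each plate scaled between vehicle and 100 µmol/L benzalkonium chloride controls, sDSS an adapted area-under-curve metric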

| compound | study system | selective drug sensitivity score |
| --- | --- | --- |
| Cc1cc(Nc2cc(N3CCN(C)CC3)nc(/C=C/c3ccccc3)n2)n[nH]1 [ENMD-2076] (top concentration 10000 nM) | COG-LL-355h | 4.04 |
| CN(C)C/C=C/C(=O)Nc1cc2c(Nc3ccc(F)c(Cl)c3)ncnc2cc1O[C@H]1CCOC1 [Afatinib] (top concentration 1000 nM) | COG-LL-355h | 0.46 |
| Nc1nc2[nH]cc(CCc3ccc(C(=O)N[C@@H](CCC(=O)O)C(=O)O)cc3)c2c(=O)[nH]1 [Pemetrexed] (top concentration 10000 nM) | COG-LL-355h | 4.28 |
| Clc1ccc(Nc2nnc(Cc3ccncc3)c3ccccc23)cc1 [Vatalanib] (top concentration 10000 nM) | COG-LL-355h | 0 |
| CN1CCN(c2ccc3nc(-c4c(N)c5c(F)cccc5[nH]c4=O)[nH]c3c2)CC1 [Dovitinib] (top concentration 10000 nM) | COG-LL-355h | 3.66 |
| OC[C@H]1O[C@@H](n2cnc3c2N=CNC[C@H]3O)C[C@@H]1O [Pentostatin] (top concentration 10000 nM) | COG-LL-355h | 1.26 |
| CC(C)(C)c1cc(NC(=O)Nc2ccc(-c3cn4c(n3)sc3cc(OCCN5CCOCC5)ccc34)cc2)no1 [Quizartinib] (top concentration 1000 nM) | COG-LL-355h | -1.02 |
| COc1cc(OC2CCN(C)CC2)ccc1Nc1ncc2c(n1)n(C1CCCC1)c(=O)n2C [AZ3146] (top concentration 10000 nM) | COG-LL-355h | 2.94 |
| CNC(=O)c1ccc(N2C(=S)N(c3ccc(C#N)c(C(F)(F)F)c3)C(=O)C2(C)C)cc1F [Enzalutamide] (top concentration 10000 nM) | COG-LL-355h | -0.82 |
| CC[C@@H]1C(=O)N(C)c2cnc(Nc3ccc(C(=O)NC4CCN(C)CC4)cc3OC)nc2N1C1CCCC1 [BI-2536] (top concentration 1000 nM) | COG-LL-355h | 4.84 |
| CNC(=O)c1ccccc1Nc1nc(Nc2ccc3c(c2OC)CCC[C@H](N2CCN(CCO)CC2)C3)ncc1Cl (top concentration 5000 nM) | COG-LL-355h | 6.96 |
| Cc1cccc(CC(=O)N2CCc3c2ccc(-c2cn(C)c4ncnc(N)c24)c3F)n1 (top concentration 2500 nM) | COG-LL-355h | -0.28 |
| COc1cc(OC)cc(N(CCNC(C)C)c2ccc3ncc(-c4cnn(C)c4)nc3c2)c1 [Erdafitinib] (top concentration 1000 nM) | COG-LL-355h | -0.56 |

----------
tested on: NALM-16; assay: selective drug sensitivity score (sDSS, relative to normal bone marrow) (sDSS (score)); higher = more potent and effective on the cell line relative to normal bone marrow cells; settings: 72 h
Measured selective drug sensitivity score values are reported for all entries that follow.
outcome measure: selective drug sensitivity score

| molecule | outcome measure | recorded measurement |
| --- | --- | --- |
| CC(C)(C)c1cc(NC(=O)Nc2ccc(-c3cn4c(n3)sc3cc(OCCN5CCOCC5)ccc34)cc2)no1 [Quizartinib] (top concentration 1000 nM) | selective drug sensitivity score | -1.32 |
| FC(F)(F)c1ccc(/C=C/c2nc(COc3ccc(CCCCn4ccnn4)cc3)co2)cc1 [Mubritinib] (top concentration 1000 nM) | selective drug sensitivity score | 4.66 |
| CN(C)Cc1c(C(=O)NCCOc2ccc(C(=O)NO)cc2)oc2ccccc12 [Abexinostat] (top concentration 10000 nM) | selective drug sensitivity score | 0.56 |
| O=C(CCCCCCC(=O)Nc1ccccc1)NO [Vorinostat] (top concentration 10000 nM) | selective drug sensitivity score | 1.5 |
| CC[C@H](C)C(=O)O[C@H]1C[C@@H](C)C=C2C=C[C@H](C)[C@H](CC[C@@H]3C[C@@H](O)CC(=O)O3)[C@H]21 [Lovastatin] (top concentration 10000 nM) | selective drug sensitivity score | -0.1 |
| COc1cc(OC2CCN(C)CC2)ccc1Nc1ncc2c(n1)n(C1CCCC1)c(=O)n2C [AZ3146] (top concentration 10000 nM) | selective drug sensitivity score | -2.56 |
| CS(=O)(=O)c1ccc(-c2cnc(N)c(C(=O)Nc3ccccc3)n2)cc1 [VE-821] (top concentration 10000 nM) | selective drug sensitivity score | -0.66 |
| Nc1cc(F)ccc1NC(=O)/C=C/c1cnn(C/C=C/c2ccccc2)c1 [RGFP966] (top concentration 10000 nM) | selective drug sensitivity score | 6.24 |
| COc1cc2ncnc(Oc3cccc(NC(=O)Nc4cc(C(C)(C)C(F)(F)F)on4)c3)c2cc1OC (top concentration 10000 nM) | selective drug sensitivity score | 0 |
| Cc1cc(Nc2cc(N3CCN(C)CC3)nc(Sc3ccc(NC(=O)C4CC4)cc3)n2)n[nH]1 [Tozasertib] (top concentration 10000 nM) | selective drug sensitivity score | -0.34 |
| Cc1cccc(-c2[nH]c(CNc3ccccc3F)nc2-c2ccc3ncnn3c2)n1 [Vactosertib (TEW-7197)] (top concentration 2500 nM) | selective drug sensitivity score | -0.4 |
| CCN(CC)CCOc1ccc(/C(=C(/Cl)c2ccccc2)c2ccccc2)cc1 [Clomifene] (top concentration 10000 nM) | selective drug sensitivity score | -2.88 |
| C=CC(=O)Nc1cccc(Nc2nc(Nc3ccc(OCCOC)cc3)ncc2F)c1 [Spebrutinib] (top concentration 1000 nM) | selective drug sensitivity score | -0.16 |
